# Procedure text: Pharmacokinetic studies in mice after intravenous and oral administration
# Type: in vivo
# Condition parameters: mouse; intravenous 5 mg/kg, male CD-1 mice, plasma
Readout: AUC(0-inf) (ng·h/mL)

Example entries begin here.
Compound: C[C@H]1CN(c2c(F)c(S(=O)(=O)NC3(C#N)CC3)cc3c2cnn3-c2nnc(C(F)(F)F)s2)C[C@H](C)N1
AUC(0-inf) (ng·h/mL): 2420
//
Compound: C[C@H]1CN(c2c(F)c(S(=O)(=O)NC3(C)CC3)cc3c2cnn3-c2nnc(C(F)(F)F)s2)C[C@H](C)N1
AUC(0-inf) (ng·h/mL): 2350
//
Compound: C[C@H]1CN(c2cc(S(=O)(=O)NC3(C)CC3)cc3c2cnn3-c2nnc(C(F)F)s2)C[C@H](C)N1 [Compound 1′, reference compound]
AUC(0-inf) (ng·h/mL): 939

a. C[C@H]1CN(c2c(F)c(S(=O)(=O)NC3(C)CC3)cc3c2cnn3-c2nnc(C(F)F)s2)C[C@H](C)N1
b. C[C@H]1CN(c2cc(S(=O)(=O)NC3(C)CC3)cc3c2cnn3-c2nnc(C(F)(F)F)s2)C[C@H](C)N1
Challenge: Please let me know which one, a or b , has a lower measured AUC(0-inf) value. Return value: the label identifying the chosen record.
Response given: a
(a: 1620 ng·h/mL, b: 3700 ng·h/mL)

====

# Procedure text: Pharmacokinetic studies in mice after intravenous and oral administration
# Format: in vivo
# Condition parameters: mouse; oral administration 10 mg/kg, male CD-1 mice, plasma
Readout: AUC(0-inf) (ng·h/mL)

Known AUC(0-inf) results, listed for orientation:
Compound: C[C@H]1CN(c2c(F)c(S(=O)(=O)NC3(C#N)CC3)cc3c2cnn3-c2nnc(C(F)(F)F)s2)C[C@H](C)N1 [Compound 3]
AUC(0-inf) / ng·h/mL: 4080
//
Compound: C[C@H]1CN(c2cc(S(=O)(=O)NC3(C)CC3)cc3c2cnn3-c2nnc(C(F)(F)F)s2)C[C@H](C)N1 [Compound 1]
AUC(0-inf) / ng·h/mL: 2980

1. C[C@H]1CN(c2c(F)c(S(=O)(=O)NC3(C)CC3)cc3c2cnn3-c2nnc(C(F)(F)F)s2)C[C@H](C)N1 [Compound 4]
2. C[C@H]1CN(c2cc(S(=O)(=O)NC3(C)CC3)cc3c2cnn3-c2nnc(C(F)F)s2)C[C@H](C)N1 [Compound 1′, reference compound]
3. C[C@H]1CN(c2c(F)c(S(=O)(=O)NC3(C)CC3)cc3c2cnn3-c2nnc(C(F)F)s2)C[C@H](C)N1 [Compound 5]
Challenge: Ascending by AUC(0-inf), please. Form field (ranking): labels in requested order.
Response given: 2, 3, 1
(2: 929 ng·h/mL, 3: 2000 ng·h/mL, 1: 3970 ng·h/mL)

====

# Procedure text: Pharmacokinetic studies in mice after intravenous and oral administration
# Format: in vivo
# Condition parameters: mouse; oral administration 10 mg/kg, male CD-1 mice, plasma
Readout: AUC(0-t) (ng·h/mL)

Molecule: C[C@H]1CN(c2c(F)c(S(=O)(=O)NC3(C#N)CC3)cc3c2cnn3-c2nnc(C(F)(F)F)s2)C[C@H](C)N1
Value unit: ng·h/mL
AUC(0-t): 4070

A. C[C@H]1CN(c2cc(S(=O)(=O)NC3(C)CC3)cc3c2cnn3-c2nnc(C(F)F)s2)C[C@H](C)N1 [Compound 1′, reference compound]
B. C[C@H]1CN(c2c(F)c(S(=O)(=O)NC3(C)CC3)cc3c2cnn3-c2nnc(C(F)F)s2)C[C@H](C)N1
C. C[C@H]1CN(c2c(F)c(S(=O)(=O)NC3(C)CC3)cc3c2cnn3-c2nnc(C(F)(F)F)s2)C[C@H](C)N1
Challenge: // sort entries: AUC(0-t), high to low Dear reader, please state the labels in the requested order.
Response given: C, B, A

Values were extracted from patent US20250154142A1.
